Target Or Test System: Steroidogenic factor 1 (Homo sapiens) (UniProt Q13285)
Sequence (Q13285 whole entry, looked up): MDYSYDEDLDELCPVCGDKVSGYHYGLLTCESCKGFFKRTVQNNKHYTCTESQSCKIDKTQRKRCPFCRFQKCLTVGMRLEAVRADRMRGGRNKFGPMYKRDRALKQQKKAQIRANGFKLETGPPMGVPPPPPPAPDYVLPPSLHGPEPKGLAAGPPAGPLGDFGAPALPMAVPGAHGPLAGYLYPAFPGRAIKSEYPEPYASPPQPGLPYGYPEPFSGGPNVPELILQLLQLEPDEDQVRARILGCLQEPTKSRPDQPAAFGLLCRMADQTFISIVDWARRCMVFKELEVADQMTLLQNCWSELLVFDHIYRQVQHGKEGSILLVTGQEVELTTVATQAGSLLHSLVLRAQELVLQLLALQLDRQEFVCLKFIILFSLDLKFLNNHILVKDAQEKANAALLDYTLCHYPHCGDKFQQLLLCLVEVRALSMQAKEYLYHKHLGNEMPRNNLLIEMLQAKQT
Assay Notes: SF1 (NR5A1) inverse agonists, counter-screen for LRH-1 inverse agonist project, cell-based, luminescence, high throughput (AID 651614);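 also: cells cotransfected with StAR promoter reporter and SF1 expression vector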
Protocol Conditions: cell-based SF1 luciferase reporter, at 3.6 µM, active compounds read high
Outcome: y for inhibition of at least 50%; n for anything lower.

{"Compound": "CC(C)c1ccc(NC(=O)CSc2nc(=O)[nH]c3c2CCCC3)cc1", "Discrete Label": "n"}
{"Compound": "CCCOc1ccc(Cn2cnc3ccccc32)cc1", "Discrete Label": "y"}
{"Compound": "COc1cc(NC(=O)CCl)ccc(=O)c1", "Discrete Label": "y"}
{"Compound": "CCN(CC)S(=O)(=O)c1ccc(NC(=O)c2ccc(CN3CCOCC3)cc2)cc1", "Discrete Label": "y"}
{"Compound": "CSCc1c(C(=O)Nc2ccccc2N2CCOCC2)oc2ccccc12", "Discrete Label": "y"}
{"Compound": "S=C(NCCCc1cnc[nH]1)NCCCN(Cc1ccc(Cl)cc1)c1ccc(Br)cn1", "Discrete Label": "y"}
{"Compound": "Oc1ccc2ccccc2c1C=NCc1ccccc1", "Discrete Label": "n"}
{"Compound": "CC(=O)Nc1ccc(NC(=O)CSc2nnnn2C2CCCCC2)cc1", "Discrete Label": "n"}
{"Compound": "O=C(CSc1nncc(=O)[nH]1)Nc1cccc([N+](=O)[O-])c1", "Discrete Label": "y"}
{"Compound": "COc1ccc2nc(N3CCN(C(=O)c4ccc([N+](=O)[O-])o4)CC3)sc2c1", "Discrete Label": "y"}
{"Compound": "Cc1ccc(C(=O)C(C(=O)/C=C/c2ccccc2)=C2SCCCS2)cc1", "Discrete Label": "n"}
{"Compound": "Cc1cc(C(=O)CSc2ccc(F)cc2)cc(C)c1OC(=S)N(C)C", "Discrete Label": "n"}
{"Compound": "N=c1c2c(n(Cc3cccc(Cl)c3)c3c1CCC3)CCCC2", "Discrete Label": "y"}
{"Compound": "NC(=O)c1cc2ccncc2c2ccccc12", "Discrete Label": "y"}
{"Compound": "Cc1nnc(SCC(=O)Nc2sc3c(c2C(N)=O)CCCC3)[nH]c1=O", "Discrete Label": "n"}
{"Compound": "COC(C(=O)C(O)C(C)O)C1Cc2cc3cc(OC4CC(OC5CC(O)C(O)C(C)O5)C(O)C(C)O4)c(C)c(O)c3c(O)c2C(=O)C1OC1CC(OC2CC(OC3CC(O)C(OC)C(C)O3)C(O)C(C)O2)C(O)C(C)O1 (stereo not drawn)", "Discrete Label": "y"}
{"Compound": "CC(O)(c1cccnc1)c1nc(-c2cccc(C#N)c2)cs1 (stereo not drawn)", "Discrete Label": "y"}
{"Compound": "COc1cccc(C=Nc2ccc3c(c2)OCCO3)c1O", "Discrete Label": "n"}
{"Compound": "NC(=S)Nc1ccc(Oc2ccc(NC(N)=S)cc2)cc1", "Discrete Label": "n"}
{"Compound": "CCCc1cc(=O)oc2cc3occ(C)c3cc12", "Discrete Label": "n"}
{"Compound": "O=C(c1ccco1)N1CCCC(N2CCN(c3cccc(C(F)(F)F)c3)CC2)C1 (stereo not drawn)", "Discrete Label": "n"}
{"Compound": "O=C(N/N=C/c1ccc([N+](=O)[O-])o1)c1ccc(O)cc1", "Discrete Label": "y"}
{"Compound": "CCN(CC)CCn1c2ccccc2c2cnc(N)c(C#N)c21", "Discrete Label": "y"}
{"Compound": "COc1ccc(CCNC(=O)c2ccc(CSc3ccc(Cl)cc3)o2)cc1OC", "Discrete Label": "n"}
{"Compound": "CCOc1ccc(NC(=O)COC(=O)c2ccc3c(c2)OCCO3)cc1", "Discrete Label": "y"}
{"Compound": "COc1ccc(/C=N/OCC(=O)NC(c2ccccc2)c2ccccc2)cc1OC", "Discrete Label": "y"}
{"Compound": "CCN1C(=O)c2cccc3c(NC(=O)c4ccc(S(=O)(=O)N(C)C)cc4)ccc1c23", "Discrete Label": "n"}
{"Compound": "O=C(C(=Cc1ccccc1)CN1CCCCC1)c1ccccc1", "Discrete Label": "y"}
{"Compound": "Cc1cccc(-n2c(CNC(=O)c3ccccc3)nnc2SCC(=O)Nc2nccs2)c1", "Discrete Label": "n"}
{"Compound": "COc1ccc(Oc2ccc(NC(=O)c3ccccc3C)cc2)cc1", "Discrete Label": "n"}
{"Compound": "Cc1cccc2cc(-c3ccccc3)c(-c3ccccc3)c[n+]12", "Discrete Label": "y"}
{"Compound": "CCOc1ccc(C(C)=O)cc1COC(=O)c1cc([N+](=O)[O-])ccc1N1CCOCC1", "Discrete Label": "y"}
{"Compound": "C[n+]1c(-c2ccccc2)cc2c(=Cc3ccccc3)c3ccccc3n21", "Discrete Label": "y"}
{"Compound": "O=C(Nc1ccc(Cc2ccncc2)cc1)c1cccc([N+](=O)[O-])c1", "Discrete Label": "y"}
{"Compound": "CCN1/C(=C/c2sc(-c3ccccc3C)c[n+]2C)Sc2ccccc21", "Discrete Label": "y"}
{"Compound": "COc1cc(C2c3cc4c(cc3OC(NNC(N)=S)C2C)OCO4)cc(OC)c1OC (stereo not drawn)", "Discrete Label": "n"}
{"Compound": "CSc1ccc(CNc2cccc3ccccc23)cc1", "Discrete Label": "n"}
{"Compound": "COc1ccc(S(=O)(=O)N2CCN(CC(=O)Nc3ccc(C)c(F)c3)CC2)cc1", "Discrete Label": "y"}
{"Compound": "COC(=O)Cc1ccc(NC(=O)c2ccc(C(C)(C)C)cc2)cc1", "Discrete Label": "y"}
{"Compound": "O=C(c1ccoc1)N1CCN(c2cc(-c3ccco3)nc3cc(-c4ccccc4)nn23)CC1", "Discrete Label": "n"}
